B1: tRNA (parent)
chain: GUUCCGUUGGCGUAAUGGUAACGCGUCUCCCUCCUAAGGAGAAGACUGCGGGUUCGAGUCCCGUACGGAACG

variants of: B1; assay: yeast fitness relative to wild type (ratio to wild type); higher = fitter; tRNA-Arg(CCU), competitive growth, 37 C, YPD
Fewer inactive variants are shown than the library holds.
Measured endpoint: yeast fitness

Query (variant): A20C G56A ; field requested: yeast fitness
0.866

// repeat for C27A U35A G48A U59C and report
0.567

// repeat for A20C C34U C60A C66U A70U and report
≤ 0.5

// repeat for U19A A43C A69U and report
0.56

// repeat for C5U U7C C24G C27A and report
≤ 0.5

// repeat for U3A A36G A42U and report
0.619

// repeat for U3C C30U G44A and report
0.566

// repeat for A15G G23C C30A A42C G51C C61A G67A and report
≤ 0.5

// repeat for C31G C33U U59G C66U G68A and report
0.543

// repeat for A20U C29U C30G C34A U35A G48C and report
≤ 0.5

// repeat for A37U U47A G52U and report
≤ 0.5

// repeat for G10A C27G U35A A45U G67A and report
≤ 0.5

// repeat for A20U C31G A36C A45G A70U and report
≤ 0.5

// repeat for A21U G41A A57C and report
≤ 0.5
